# protocol_details: in vivo
# experimental_conditions: rat, brain/blood
# Description: Ratio of brain AUC (0 to t) to blood AUC (0 to t) in rat
Please mark Condition met if the recorded Kp is equal to or greater than 1, and Condition not met if it falls below.

Reference set (4 entries):
* Cc1ccc(-c2ccc3c(c2)CC(NS(=O)(=O)C(C)C)C3)cn1 (stereo not drawn) | Condition met
* Cc1ccc(-c2ccc3c(c2)C[C@@H](NS(=O)(=O)C(C)C)C3)cn1 | Condition met
* CC(C)S(=O)(=O)NC1Cc2ccc(-c3cccc(N(C)S(C)(=O)=O)c3)cc2C1 (stereo not drawn) | Condition not met
* CC(C)S(=O)(=O)NC1Cc2ccc(-c3cccc(CN4CCCC4=O)c3)cc2C1 (stereo not drawn) | Condition not met

Q. Threshold query (Kp >= 1) on CC(C)S(=O)(=O)NC1Cc2ccc(-c3cccc(NS(C)(=O)=O)c3)cc2C1 (stereo not drawn)
A. Condition not met

---

# protocol_details: Cmax in Beagle dog at 0.5 mg/kg, po
# Format: ADME, organism-based, Canis lupus familiaris
# Set-up: dose 0.5 mg/kg, route oral
# experimental_conditions: in vivo
readout: Cmax (ng/mL)
Unit ng/mL implied. Number only.

Given item CC(C)S(=O)(=O)N[C@H]1Cc2ccc(-c3ccc(F)nc3)cc2C1 , the value recorded as its Cmax is 116

---

# protocol_details: Plasma protein binding in human at 1 ug/ml after 6 hrs by equilibrium dialysis method
# Format: ADME, cell-free
# experimental_conditions: read-out: PPB (converted)
readout: fraction unbound at 6 h, 1 ug/ml
Reply briefly: the number, and no unit.

Given item CC(C)S(=O)(=O)N[C@H]1Cc2ccc(-c3ccc(F)nc3)cc2C1 , the value recorded as its fraction unbound at 6 h, 1 ug/ml is 0.092

---

# protocol_details: AUC (0 to t) in rat
# Type: ADME, organism-based
# experimental_conditions: plasma
readout: AUC(0-t) (ng·h/mL)
Unit ng·h/mL implied. Number only.

• CC(C)S(=O)(=O)NC1Cc2ccc(-c3cccc(N(C)S(C)(=O)=O)c3)cc2C1 (stereo not drawn) = 161
• CC(C)S(=O)(=O)NC1Cc2ccc(-c3cccc(CN4CCCC4=O)c3)cc2C1 (stereo not drawn) = 36

Kindly consider the entry below.
Given item CC(C)S(=O)(=O)NC1Cc2ccc(-c3cccc(NS(C)(=O)=O)c3)cc2C1 (stereo not drawn) , the value recorded as its AUC(0-t) is 1130

---

# protocol_details: Oral bioavailability in Sprague-Dawley rat at 3 mg/kg
# Type: ADME, organism-based
# experimental_conditions: in vivo
Entries and their bioavailability
Quick note: unit goes after the number.

* CC(C)S(=O)(=O)N[C@H]1Cc2ccc(-c3ccc(F)nc3)cc2C1 [GSK-729327] | 61%
* Cc1ccc(-c2ccc3c(c2)C[C@@H](NS(=O)(=O)C(C)C)C3)cn1 | 25%

Kindly consider the entry below.
Given item CC(C)S(=O)(=O)N[C@H]1Cc2ccc(-c3ccc(F)cn3)cc2C1 , the value recorded as its bioavailability is 72%

---

# protocol_details: Half life in Beagle dog at 0.5 mg/kg, po
# Type: ADME, organism-based, Canis lupus familiaris
# Design: dose 0.5 mg/kg, route oral
# experimental_conditions: in vivo
readout: half-life (h)
Unit h implied. Number only.

Given item CC(C)S(=O)(=O)N[C@H]1Cc2ccc(-c3ccc(F)nc3)cc2C1 , the value recorded as its half-life is 17

# credit: ChEMBL document CHEMBL1212831
